The reported numbers originate from PubChem BioAssay AID1918991.

tested on: 186277-243-T-J2-PDC complex spheroid growth; assay: Anticancer human tumor 186277-243-T-J2-PDC patient-derived colon adenocarcinoma cell line growth inhibition [AhR]; details: curve of first compound; second compound 0.1 µM
readout: IC50

Specify IC50 for Nc1ccccc1NC(=O)c1ccc(CNC(=O)OCc2cccnc2)cc1 + CC(CO)NC(=O)c1cc(-c2ccc(Cl)cc2)nn(-c2cnn(C)c2)c1=O and stop. 560 nM

Specify IC50 for CCN(c1cc(-c2ccc(CN3CCOCC3)cc2)cc(C(=O)NCc2c(C)cc(C)[nH]c2=O)c1C)C1CCOCC1 + Cc1cncc(-c2nc(NCCc3c[nH]c4ccccc34)c3ncn(C(C)C)c3n2)c1 and stop. > 3000 nM

Specify IC50 for CC(C)c1c(-c2ccccc2)nc2c(C#N)c[nH]n2c1=O + CC(CO)NC(=O)c1cc(-c2ccc(Cl)cc2)nn(-c2cnn(C)c2)c1=O and stop. > 10000 nM

----------
tested on: 186277-243-T-J2-PDC complex spheroid growth; assay: Anticancer human tumor 186277-243-T-J2-PDC cell line growth inhibition [AhR]; details: second compound 0.1 µM; first compound 0.316 µM; stronger effect = lower value;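 note: spheroids exposed to compounds for seven days before the viability read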
readout: viability, T/C (%)
// note: answer is a bare numeric in %

Specify viability, T/C for COc1cccc2c1C(=O)c1c(O)c3c(c(O)c1C2=O)CC(O)(C(=O)CO)CC3OC1CC(N)C(O)C(C)O1 (stereo unspecified) + Cc1ccccc1N=Nc1ccc(NC(=O)c2ccnn2C)c(C)c1 and stop. 71

Specify viability, T/C for Nc1ccn(C2OC(CO)C(O)C2(F)F)c(=O)n1 (stereo unspecified) + Cc1ccccc1N=Nc1ccc(NC(=O)c2ccnn2C)c(C)c1 and stop. 14.9

Specify viability, T/C for O=C(C=Cc1cccc(S(=O)(=O)Nc2ccccc2)c1)NO + Cc1ccccc1N=Nc1ccc(NC(=O)c2ccnn2C)c(C)c1 and stop. 96.2

Specify viability, T/C for CC1COCCN1c1cc(-c2ccnn2C)c2ccnc(-c3ccn[nH]3)c2n1 (stereo unspecified) + CC(CO)NC(=O)c1cc(-c2ccc(Cl)cc2)nn(-c2cnn(C)c2)c1=O and stop. 3.44

Specify viability, T/C for CC1COCCN1c1cc(-c2ccnn2C)c2ccnc(-c3ccn[nH]3)c2n1 (stereo unspecified) + Cc1cncc(-c2nc(NCCc3c[nH]c4ccccc34)c3ncn(C(C)C)c3n2)c1 and stop. 7.55

Specify viability, T/C for O=C(C=Cc1cccc(S(=O)(=O)Nc2ccccc2)c1)NO + CC(CO)NC(=O)c1cc(-c2ccc(Cl)cc2)nn(-c2cnn(C)c2)c1=O and stop. 50.5

----------
test system: 186277-243-T-J2-PDC complex spheroid growth; experiment: Anticancer human tumor 186277-243-T-J2-PDC cell line growth inhibition [AhR]; conditions: second compound 0.316 µM; first compound 0.316 µM; stronger effect = lower value;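 note: spheroids exposed to compounds for seven days before the viability read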
readout: viability, T/C (%)
// note: answer is a bare numeric in %

Specify viability, T/C for CC(C)c1c(-c2ccccc2)nc2c(C#N)c[nH]n2c1=O + Cc1cncc(-c2nc(NCCc3c[nH]c4ccccc34)c3ncn(C(C)C)c3n2)c1 and stop. 101

Specify viability, T/C for CC1(C)CCC(CN2CCN(c3ccc(C(=O)NS(=O)(=O)c4ccc(NCC5CCOCC5)c([N+](=O)[O-])c4)c(Oc4cnc5[nH]ccc5c4)c3)CC2)=C(c2ccc(Cl)cc2)C1 + CC(CO)NC(=O)c1cc(-c2ccc(Cl)cc2)nn(-c2cnn(C)c2)c1=O and stop. 96.7

Specify viability, T/C for NS(=O)(=O)OCC1CC(n2ccc3c(NC4CCc5ccccc54)ncnc32)CC1O (stereo unspecified) + Cc1ccccc1N=Nc1ccc(NC(=O)c2ccnn2C)c(C)c1 and stop. 67.1

Specify viability, T/C for Nc1ncn(C2CC(O)C(CO)O2)c(=O)n1 (stereo unspecified) + CC(CO)NC(=O)c1cc(-c2ccc(Cl)cc2)nn(-c2cnn(C)c2)c1=O and stop. 63.6

Specify viability, T/C for COc1cc(C2c3cc4c(cc3C(OC3OC5COC(C)OC5C(O)C3O)C3COC(=O)C23)OCO4)cc(OC)c1O (stereo unspecified) + CC(CO)NC(=O)c1cc(-c2ccc(Cl)cc2)nn(-c2cnn(C)c2)c1=O and stop. 45

Specify viability, T/C for CC1COCCN1c1cc(C2(S(C)(=N)=O)CC2)nc(-c2ccnc3[nH]ccc23)n1 (stereo unspecified) + Cc1ccccc1N=Nc1ccc(NC(=O)c2ccnn2C)c(C)c1 and stop. 98.5

----------
tested on: 186277-243-T-J2-PDC complex spheroid growth; experiment: Anticancer human tumor 186277-243-T-J2-PDC cell line growth inhibition [AhR]; details: second compound 0.316 µM; first compound 1 µM; stronger effect = lower value;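 note: spheroids exposed to compounds for seven days before the viability read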;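 for viability, T/C: luminescent signal used as a stand-in for viable cell amount; 100% = DMSO vehicle control wells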
readout: viability, T/C (%)
// note: answer is a bare numeric in %

Specify viability, T/C for O=C(C=Cc1cccc(S(=O)(=O)Nc2ccccc2)c1)NO + Cc1ccccc1N=Nc1ccc(NC(=O)c2ccnn2C)c(C)c1 and stop. 74.7

Specify viability, T/C for CC1COCCN1c1cc(C2(S(C)(=N)=O)CC2)nc(-c2ccnc3[nH]ccc23)n1 (stereo unspecified) + Cc1ccccc1N=Nc1ccc(NC(=O)c2ccnn2C)c(C)c1 and stop. 97

Specify viability, T/C for O=C(C=Cc1cccc(S(=O)(=O)Nc2ccccc2)c1)NO + Cc1cncc(-c2nc(NCCc3c[nH]c4ccccc34)c3ncn(C(C)C)c3n2)c1 and stop. 42

Specify viability, T/C for COc1cccc2c1C(=O)c1c(O)c3c(c(O)c1C2=O)CC(O)(C(=O)CO)CC3OC1CC(N)C(O)C(C)O1 (stereo unspecified) + Cc1cncc(-c2nc(NCCc3c[nH]c4ccccc34)c3ncn(C(C)C)c3n2)c1 and stop. 0.27

Specify viability, T/C for Nc1ccccc1NC(=O)c1ccc(CNC(=O)OCc2cccnc2)cc1 + Cc1ccccc1N=Nc1ccc(NC(=O)c2ccnn2C)c(C)c1 and stop. 94.4

Specify viability, T/C for CC(C)c1c(-c2ccccc2)nc2c(C#N)c[nH]n2c1=O + Cc1cncc(-c2nc(NCCc3c[nH]c4ccccc34)c3ncn(C(C)C)c3n2)c1 and stop. 98.8

----------
tested on: 186277-243-T-J2-PDC complex spheroid growth; assay: Anticancer human tumor 186277-243-T-J2-PDC cell line growth inhibition [AhR]; conditions: second compound 10 µM; first compound 0.3 µM; stronger effect = lower value;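 note: spheroids exposed to compounds for seven days before the viability read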;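 for viability, T/C: luminescent signal used as a stand-in for viable cell amount; 100% = DMSO vehicle control wells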
readout: viability, T/C (%)
// note: answer is a bare numeric in %

Specify viability, T/C for CC(C)CC(NC(=O)C(Cc1ccccc1)NC(=O)c1cnccn1)B(O)O (stereo not drawn) + Cc1ccccc1N=Nc1ccc(NC(=O)c2ccnn2C)c(C)c1 and stop. 0.21

Specify viability, T/C for Nc1ncn(C2CC(O)C(CO)S2)c(=O)n1 (stereo not drawn) + Cc1ccccc1N=Nc1ccc(NC(=O)c2ccnn2C)c(C)c1 and stop. 90.1

Specify viability, T/C for Nc1ncn(C2CC(O)C(CO)S2)c(=O)n1 (stereo not drawn) + Cc1cncc(-c2nc(NCCc3c[nH]c4ccccc34)c3ncn(C(C)C)c3n2)c1 and stop. 63.3

----------
tested on: 186277-243-T-J2-PDC complex spheroid growth; test: Anticancer human tumor 186277-243-T-J2-PDC cell line growth inhibition [AhR]; settings: second compound 3.16 µM; first compound 0.316 µM; stronger effect = lower value;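 note: spheroids exposed to compounds for seven days before the viability read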;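 for viability, T/C: luminescent signal used as a stand-in for viable cell amount; 100% = DMSO vehicle control wells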
readout: viability, T/C (%)
// note: answer is a bare numeric in %

Specify viability, T/C for NS(=O)(=O)OCC1CC(n2ccc3c(NC4CCc5ccccc54)ncnc32)CC1O (stereo not drawn) + Cc1cncc(-c2nc(NCCc3c[nH]c4ccccc34)c3ncn(C(C)C)c3n2)c1 and stop. 52.2

Specify viability, T/C for Nc1ccn(C2OC(CO)C(O)C2(F)F)c(=O)n1 (stereo not drawn) + Cc1cncc(-c2nc(NCCc3c[nH]c4ccccc34)c3ncn(C(C)C)c3n2)c1 and stop. 8.78

Specify viability, T/C for O=C(C=Cc1cccc(S(=O)(=O)Nc2ccccc2)c1)NO + Cc1cncc(-c2nc(NCCc3c[nH]c4ccccc34)c3ncn(C(C)C)c3n2)c1 and stop. 111

----------
tested on: 186277-243-T-J2-PDC complex spheroid growth; experiment: Anticancer human tumor 186277-243-T-J2-PDC cell line growth inhibition [AhR]; settings: second compound 10 µM; first compound 0.03 µM; stronger effect = lower value;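 note: spheroids exposed to compounds for seven days before the viability read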;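 for viability, T/C: luminescent signal used as a stand-in for viable cell amount; 100% = DMSO vehicle control wells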
Criterion: viability, T/C strictly under 80%. Met: Fulfilled. Not met: Not fulfilled.

Lab note: viability, T/C threshold 80%. Does this compound come in strictly under it? CC(C)CC(NC(=O)C(Cc1ccccc1)NC(=O)c1cnccn1)B(O)O (stereo unspecified) + CC(CO)NC(=O)c1cc(-c2ccc(Cl)cc2)nn(-c2cnn(C)c2)c1=O Fulfilled

Lab note: viability, T/C threshold 80%. Does this compound come in strictly under it? CCN(c1cc(-c2ccc(CN3CCOCC3)cc2)cc(C(=O)NCc2c(C)cc(C)[nH]c2=O)c1C)C1CCOCC1 + Cc1cncc(-c2nc(NCCc3c[nH]c4ccccc34)c3ncn(C(C)C)c3n2)c1 Not fulfilled

Lab note: viability, T/C threshold 80%. Does this compound come in strictly under it? CCc1c2c(nc3ccc(O)cc13)-c1cc3c(c(=O)n1C2)COC(=O)[C@]3(O)CC + Cc1ccccc1N=Nc1ccc(NC(=O)c2ccnn2C)c(C)c1 Fulfilled

Lab note: viability, T/C threshold 80%. Does this compound come in strictly under it? CCc1c2c(nc3ccc(O)cc13)-c1cc3c(c(=O)n1C2)COC(=O)[C@]3(O)CC + CC(CO)NC(=O)c1cc(-c2ccc(Cl)cc2)nn(-c2cnn(C)c2)c1=O Fulfilled

Lab note: viability, T/C threshold 80%. Does this compound come in strictly under it? CCN(c1cc(-c2ccc(CN3CCOCC3)cc2)cc(C(=O)NCc2c(C)cc(C)[nH]c2=O)c1C)C1CCOCC1 + Cc1ccccc1N=Nc1ccc(NC(=O)c2ccnn2C)c(C)c1 Not fulfilled

Lab note: viability, T/C threshold 80%. Does this compound come in strictly under it? O=C(C=Cn1cnc(-c2cc(C(F)(F)F)cc(C(F)(F)F)c2)n1)NNc1cnccn1 + Cc1ccccc1N=Nc1ccc(NC(=O)c2ccnn2C)c(C)c1 Not fulfilled
